- System: HL-1
- assay.remarks: relative cell viability (CellTiter-Glo) vs DMSO control (% of DMSO control); higher = more viable cells
- measurement.context: oxygen condition: hypoxia 48 h (1% O2) + reoxygenation 24 h; 5000 nM
Where a name gives a salt, the structure may show the parent alone.
reported.endpoint: relative cell viability

compound="CCCCNc1ccc(C(=O)OCCN(C)C)cc1 [Tetracaine hydrochloride]" reported_result=106
compound=Nc1nc(F)nc2c1ncn2[C@@H]1O[C@H](CO)[C@@H](O)[C@@H]1O reported_result=109
compound="CC(=O)OCC(=O)NCCCOc1cccc(CN2CCCCC2)c1 [Roxatidine acetate HCl]" reported_result=114
compound=Cc1cc(C2CCCCC2)n(O)c(=O)c1 reported_result=5.32

# input Which relative cell viability value belongs to COC(=O)[C@H](Cc1ccccc1)NC(=O)[C@@H](N)CC(=O)O ?
# output 106

---

# Lookup of reported relative cell viability keyed by entry
- Test system: HL-1
- assay.remarks: relative cell viability (CellTiter-Glo) vs DMSO control (% of DMSO control); higher = more viable cells
- measurement.context: oxygen condition: normoxia 72 h; 5000 nM
Counter-ions that a name gives are not always drawn.
Lab note: jot down the number only; don't add units.

Observe how each entry below is paired with its result.
compound="C=C1CC[C@H](O)C/C1=C/C=C1\\CCC[C@]2(C)[C@@H]([C@H](C)/C=C/[C@H](C)C(C)C)CC[C@@H]12 [Vitamin D2]" reported_result=110
compound="O=C(Nc1ccccc1)OCC(CN1CCCCC1)OC(=O)Nc1ccccc1 (stereo not drawn) [Diperodon HCl]" reported_result=109
compound=CC(C)(Oc1ccc(Cl)cc1)C(=O)O reported_result=109
compound="COCCCC/C(=N\\OCCN)c1ccc(C(F)(F)F)cc1 [Fluvoxamine maleate]" reported_result=95.2
compound=CC(=O)[C@H]1CC[C@H]2[C@@H]3CC=C4C[C@@H](O)CC[C@]4(C)[C@H]3CC[C@]12C reported_result=107

# input Which relative cell viability value belongs to CCCc1nc2c(C)cc(-c3nc4ccccc4n3C)cc2n1Cc1ccc(-c2ccccc2C(=O)O)cc1 ?
# output 109

# input Now give it for COC(=O)C1=C(C)NC(C)=C(C(=O)OCCN(C)Cc2ccccc2)C1c1cccc([N+](=O)[O-])c1 (stereo not drawn) [Nicardipine HCl] too.
# output 122

# input Now give it for CCN(Cc1ccncc1)C(=O)C(CO)c1ccccc1 (stereo not drawn) [Tropicamide] too.
# output 104

# input Now give it for CCCN(CCC)S(=O)(=O)c1ccc(C(=O)O)cc1 too.
# output 115

# input Now give it for CC(C)C[C@H](NC(=O)[C@H](Cc1ccccc1)NC(=O)c1cnccn1)B(O)O too.
# output 4.44

# input Now give it for CC(=O)NS(=O)(=O)c1ccc(N)cc1 [sulfacetamide sodium] too.
# output 108

# input Now give it for CCCc1cc(=O)[nH]c(=S)[nH]1 too.
# output 110

---

# Lookup of reported relative cell viability keyed by entry
- Test system: HL-1
- assay.remarks: relative cell viability (CellTiter-Glo) vs DMSO control (% of DMSO control); higher = more viable cells
- measurement.context: oxygen condition: hypoxia 48 h (1% O2) + reoxygenation 24 h; 40 nM
Lab note: jot down the number only; don't add units.

Observe how each entry below is paired with its result.
molecule=Cc1cccc(Nc2ccccc2C(=O)O)c1C reported_result=96.6
molecule="Cc1ccc(Nc2nccc(N(C)c3ccc4c(C)n(C)nc4c3)n2)cc1S(N)(=O)=O [Pazopanib]" reported_result=104
molecule=Cc1onc(-c2ccccc2)c1-c1ccc(S(N)(=O)=O)cc1 reported_result=101
molecule="CC(C)CC(N)=O [Isovaleramide]" reported_result=96.1
molecule=COC(c1ccccc1)(c1ccccc1)[C@H](Oc1nc(C)cc(C)n1)C(=O)O reported_result=105

Next, consider the following molecule.
# input Param readout= relative cell viability; system= HL-1; entry= CC1CCc2cc(F)cc3c(=O)c(C(=O)O)cn1c23 (centres undefined) ; returns value.
# output 104
